src = patent US10994015B2

Recorded measurements of log10 IC50, one per entry
Target: EGFR WT (Homo sapiens (Human))
Sequence (P00533 25-1210): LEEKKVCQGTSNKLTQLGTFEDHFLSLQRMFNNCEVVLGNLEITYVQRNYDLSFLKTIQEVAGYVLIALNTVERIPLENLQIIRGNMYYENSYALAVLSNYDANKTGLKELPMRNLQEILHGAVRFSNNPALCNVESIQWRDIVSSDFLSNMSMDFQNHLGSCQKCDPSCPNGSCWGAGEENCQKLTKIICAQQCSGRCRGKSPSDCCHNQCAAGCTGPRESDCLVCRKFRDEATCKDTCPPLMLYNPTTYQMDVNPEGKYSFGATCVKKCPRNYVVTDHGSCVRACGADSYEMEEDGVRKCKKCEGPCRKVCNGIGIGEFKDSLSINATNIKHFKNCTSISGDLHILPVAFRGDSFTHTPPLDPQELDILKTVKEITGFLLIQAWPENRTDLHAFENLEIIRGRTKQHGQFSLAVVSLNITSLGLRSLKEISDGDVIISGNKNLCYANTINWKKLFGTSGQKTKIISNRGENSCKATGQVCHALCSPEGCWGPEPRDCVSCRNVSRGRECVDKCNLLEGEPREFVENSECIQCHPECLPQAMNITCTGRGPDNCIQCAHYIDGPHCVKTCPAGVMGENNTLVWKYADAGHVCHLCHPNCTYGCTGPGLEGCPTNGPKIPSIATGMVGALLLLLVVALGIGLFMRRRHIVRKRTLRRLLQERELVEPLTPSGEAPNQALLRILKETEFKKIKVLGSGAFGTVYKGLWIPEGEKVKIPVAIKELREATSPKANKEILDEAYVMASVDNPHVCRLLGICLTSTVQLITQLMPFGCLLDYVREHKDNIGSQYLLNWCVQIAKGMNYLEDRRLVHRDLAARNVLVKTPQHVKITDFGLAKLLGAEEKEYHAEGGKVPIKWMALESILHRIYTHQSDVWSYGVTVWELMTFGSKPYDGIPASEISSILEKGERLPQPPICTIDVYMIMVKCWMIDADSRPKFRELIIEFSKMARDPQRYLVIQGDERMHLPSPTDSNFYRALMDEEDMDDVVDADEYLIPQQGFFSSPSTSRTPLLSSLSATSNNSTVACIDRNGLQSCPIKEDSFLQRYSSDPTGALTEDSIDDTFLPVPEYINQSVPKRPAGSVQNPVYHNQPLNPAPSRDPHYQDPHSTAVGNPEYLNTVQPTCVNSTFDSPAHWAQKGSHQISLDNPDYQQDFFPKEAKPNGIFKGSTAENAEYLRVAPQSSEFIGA
Experiment: TR-FRET assay for ERBB kinases
Type: biochemical
Conditions: geometric mean if measured more than once
Method: TR-FRET Assay for ERBB Kinases All compounds and PROTACs were serially diluted in three-fold increments using 100% DMSO, followed by an intermediate 10-fold dilution using Buffer A (50 mM HEPES, pH 7.5, 50 mM NaCl, 10 mM MgCl2, 1 mM DTT, and 0.1% Pluronic F-68). […] Next, 10 uL of protein kinase in Buffer A was added to each well of the assay plate and pre-incubated with compound for 10 minutes. […]
Give log10 of IC50, with IC50 taken in nM.

Some solved cases for reference:
molecule	recorded.value
O=C1CCC(N2C(=O)c3ccc(NCCOCCOCC#Cc4cccc5c4C(=O)N(C(C(=O)Nc4nccs4)c4cc(F)ccc4O)C5)cc3C2=O)C(=O)N1 (stereo not drawn)	3.48
O=C1CCC(N2C(=O)c3ccc(OCCOCCOCCOCCOCCOCC#Cc4cccc5c4C(=O)N([C@@H](C(=O)Nc4nccs4)c4cc(F)ccc4O)C5)cc3C2=O)C(=O)N1 (stereo partly drawn)	3.93
CC(C)n1nc(N2CC(CN3CCN(CC4CCN(c5ccc6c(c5)C(=O)N(C5CCC(=O)NC5=O)C6=O)CC4)CC3)C2)c2cnc(Nc3ccnc(-c4cnn(S(=O)(=O)C5CC5)c4)n3)cc21 (stereo not drawn) [compound 314]	1.95
O=C1CCC(N2C(=O)c3ccc(OCCOCCOCCOCCCc4cccc5c4C(=O)N(C(C(=O)Nc4nccs4)c4cc(F)ccc4O)C5)cc3C2=O)C(=O)N1 (stereo not drawn)	3.08

Query: Given Cc1ncsc1-c1ccc([C@H](C)NC(=O)[C@@H]2C[C@@H](O)CN2C(=O)[C@@H](NC(=O)COCCCOCCCN2CCC3(CC2)CCN(c2nccc(Nc4cc5c(cn4)nc(C)n5C(C)C)n2)CC3)C(C)(C)C)cc1 , state its recorded log10 IC50.
Result: 4.08

Query: What log10 IC50 value was documented for this molecule, Cc1ncsc1-c1ccc(CNC(=O)[C@@H]2C[C@@H](O)CN2C(=O)[C@@H](NC(=O)COCCOCCOCCOCCOCC#Cc2cccc3c2C(=O)N(C(C(=O)Nc2nccs2)c2cc(F)ccc2O)C3)C(C)(C)C)cc1 (stereo partly drawn) ?
Result: 2.76

Query: // lookup log10 IC50 for Cc1ncsc1-c1ccc(CNC(=O)[C@@H]2C[C@@H](O)CN2C(=O)[C@H](C(C)C)N2Cc3ccccc3C2=O)c(OCCOCCOCCOCCOCC#Cc2cccc3c2C(=O)N([C@@H](C(=O)Nc2nccs2)c2cc(F)ccc2O)C3)c1
Result: 3.32

Query: For CC(C)n1nc(N2CC(CN[C@H]3C[C@H](Oc4ccc5c(c4)C(=O)N(C4CCC(=O)NC4=O)C5=O)C3)C2)c2cnc(Nc3ccnc(-c4cnn(S(=O)(=O)C5CC5)c4)n3)cc21 (stereo partly drawn) , what is its reported log10 IC50?
Result: 0.62

Query: # lookup: log10 IC50 of Cc1ncsc1-c1ccc([C@H](C)NC(=O)[C@@H]2C[C@@H](O)CN2C(=O)[C@@H](NC(=O)COCCOCCCNCC2CN(c3nn(C(C)C)c4cc(Nc5ccnc(-c6cnn(S(=O)(=O)C7CC7)c6)n5)ncc34)C2)C(C)(C)C)cc1
Result: 2.08

Query: Consider the molecule Cc1ncsc1-c1ccc([C@H](C)NC(=O)[C@@H]2C[C@@H](O)CN2C(=O)[C@@H](NC(=O)CN2CCN(CCOCCOCCOCCOCC#Cc3cccc4c3C(=O)N(C(C(=O)Nc3nccs3)c3cc(F)ccc3O)C4)CC2)C(C)(C)C)cc1 (stereo partly drawn) and give its measured log10 IC50.
Result: 0.86

Query: Which log10 IC50 value belongs to O=C1CCC(N2C(=O)c3ccc(N4CCN(CCCC#Cc5cccc6c5C(=O)N(C(C(=O)Nc5nccs5)c5cc(F)ccc5O)C6)CC4)cc3C2=O)C(=O)N1 (stereo not drawn) ?
Result: 3.28

Query: Look at this molecule and give its reported log10 IC50. Cc1ncsc1-c1ccc(CNC(=O)[C@@H]2C[C@@H](O)CN2C(=O)[C@H](C(C)C)N2Cc3ccccc3C2=O)c(OCCOCCOCCN2CCN(Cc3ccc(-c4cc5c(NCc6ccccc6Cl)ncnc5[nH]4)cc3)CC2)c1
Result: 2.89
